Value source: paper PMC11642016

System: PANC-1 cells
Experiment: CellTiter-Glo luminescent cell viability assay, PANC-1
Settings: PANC-1; 25 µM; 72 h; first-set screening; mean ± SD, n = 2
assay-readout: Cell Viability (% of Control) 25 µM

Query block: Give a short answer stating reported Cell Viability (% of Control) 25 µM for O=C1C2=C(CCN(Cc3ccc(-n4cc(-[c-]5cccc5)nn4)cc3)C2)N2CCN=C2N1Cc1ccc(C#CCO)cc1.[Fe+2].c1cc[cH-]c1 [1b] .
Result block: 95 ± 2 % of Control

Query block: Give recorded Cell Viability (% of Control) 25 µM. O=C1C2=C(CCN(Cc3ccc(-n4cc(-[c-]5cccc5)nn4)cc3)C2)N2CCN=C2N1Cc1cccc(C#CCO)c1.[Fe+2].c1cc[cH-]c1 [2c]
Result block: 97 ± 2 % of Control

Query block: Indicate its recorded Cell Viability (% of Control) 25 µM; the compound in question is NCC#Cc1cccc(CN2C(=O)C3=C(CCN(Cc4cccc(-n5cc(-[c-]6cccc6)nn5)c4)C3)N3CCN=C23)c1.[Fe+2].c1cc[cH-]c1 [4a]
Result block: 0 ± 0 % of Control

Query block: Answer with reported Cell Viability (% of Control) 25 µM of NCC#Cc1cccc(CN2C(=O)C3=C(CCN(Cc4ccc(-n5cc(-[c-]6cccc6)nn5)cc4)C3)N3CCN=C23)c1.[Fe+2].c1cc[cH-]c1 [2a]
Result block: 0 ± 0 % of Control

Query block: Answer with the recorded Cell Viability (% of Control) 25 µM for the compound listed here: NCC#Cc1ccc(CN2C(=O)C3=C(CCN(Cc4cccc(-n5cc(-[c-]6cccc6)nn5)c4)C3)N3CCN=C23)cc1.[Fe+2].c1cc[cH-]c1 [3a]
Result block: 0 ± 0 % of Control

Query block: Answer with the recorded Cell Viability (% of Control) 25 µM for the compound listed here: O=C1C2=C(CCN(Cc3cccc(-n4cc(-[c-]5cccc5)nn4)c3)C2)N2CCN=C2N1Cc1ccc(C#CCO)cc1.[Fe+2].c1cc[cH-]c1 [3c]
Result block: 98 ± 1 % of Control

Query block: Given NCC#Cc1ccc(CN2C(=O)C3=C(CCN(Cc4ccc(-n5cc(-[c-]6cccc6)nn5)cc4)C3)N3CCN=C23)cc1.[Fe+2].c1cc[cH-]c1 [I/A, reference compound] , respond with its Cell Viability (% of Control) 25 µM.
Result block: 0 ± 0 % of Control
